# SYSTEM: GCGR extracellular domain (human, UniProt P47871)
# Sequence (P47871 26-477): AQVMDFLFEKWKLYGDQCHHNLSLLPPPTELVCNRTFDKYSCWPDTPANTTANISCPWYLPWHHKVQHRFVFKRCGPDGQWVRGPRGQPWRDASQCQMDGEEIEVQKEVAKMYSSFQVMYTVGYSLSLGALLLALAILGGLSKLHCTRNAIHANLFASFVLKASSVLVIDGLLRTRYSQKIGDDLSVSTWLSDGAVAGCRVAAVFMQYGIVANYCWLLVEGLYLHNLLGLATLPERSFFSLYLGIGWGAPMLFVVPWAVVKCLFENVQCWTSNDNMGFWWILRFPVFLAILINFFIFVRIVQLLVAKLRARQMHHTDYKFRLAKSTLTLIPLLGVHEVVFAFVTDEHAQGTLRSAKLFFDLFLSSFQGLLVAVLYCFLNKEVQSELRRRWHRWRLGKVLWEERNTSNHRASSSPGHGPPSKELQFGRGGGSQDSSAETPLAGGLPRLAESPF
# METHOD: SPR
PROPERTY MEASURED: pKd
Note on units: pKd is unitless, being -log10 of a concentration expressed in mol/L.

# BINDER, pKd
measured = [
    ("VL Y94S (antibody, V domains shown) VH: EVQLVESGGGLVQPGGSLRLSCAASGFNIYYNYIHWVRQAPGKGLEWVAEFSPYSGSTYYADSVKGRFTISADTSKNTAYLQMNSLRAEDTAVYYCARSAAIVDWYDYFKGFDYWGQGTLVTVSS VL: DIQMTQSPSSLSASVGDRVTITCRASQSVSSAVAWYQQKPGKAPKLLIYSASSLYSGVPSRFSGSRSGTDFTLTISSLQPEDFATYYCQQYGSSLYTFGQGTKVEIK", 8.68),
    ("VH Y100bH (antibody, V domains shown) VH: EVQLVESGGGLVQPGGSLRLSCAASGFNIYYNYIHWVRQAPGKGLEWVAEFSPYSGSTYYADSVKGRFTISADTSKNTAYLQMNSLRAEDTAVYYCARSAAIVDWHDYFKGFDYWGQGTLVTVSS VL: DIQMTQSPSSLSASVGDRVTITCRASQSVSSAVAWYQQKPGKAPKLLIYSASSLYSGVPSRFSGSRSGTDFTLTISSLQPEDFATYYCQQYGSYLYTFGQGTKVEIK", 8.54),
    ("VL Y91F (antibody, V domains shown) VH: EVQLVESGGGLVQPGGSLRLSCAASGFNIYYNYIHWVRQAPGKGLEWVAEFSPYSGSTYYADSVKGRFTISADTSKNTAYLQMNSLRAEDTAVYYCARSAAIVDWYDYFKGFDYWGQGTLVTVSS VL: DIQMTQSPSSLSASVGDRVTITCRASQSVSSAVAWYQQKPGKAPKLLIYSASSLYSGVPSRFSGSRSGTDFTLTISSLQPEDFATYYCQQFGSYLYTFGQGTKVEIK", 8.77),
    ("VL Y91K (antibody, V domains shown) VH: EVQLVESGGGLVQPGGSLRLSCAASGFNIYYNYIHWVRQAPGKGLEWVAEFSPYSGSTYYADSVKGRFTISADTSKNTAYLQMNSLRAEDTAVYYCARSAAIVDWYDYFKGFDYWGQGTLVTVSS VL: DIQMTQSPSSLSASVGDRVTITCRASQSVSSAVAWYQQKPGKAPKLLIYSASSLYSGVPSRFSGSRSGTDFTLTISSLQPEDFATYYCQQKGSYLYTFGQGTKVEIK", 8.68),
]

Ask: Which measured pKd value corresponds to VH Y30I (antibody, V domains shown) VH: EVQLVESGGGLVQPGGSLRLSCAASGFNIIYNYIHWVRQAPGKGLEWVAEFSPYSGSTYYADSVKGRFTISADTSKNTAYLQMNSLRAEDTAVYYCARSAAIVDWYDYFKGFDYWGQGTLVTVSS VL: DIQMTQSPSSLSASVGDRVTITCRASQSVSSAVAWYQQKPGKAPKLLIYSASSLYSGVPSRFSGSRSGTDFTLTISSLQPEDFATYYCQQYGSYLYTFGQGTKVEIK ?
Result: 8.26
